system: PPARg homodimer (NR concentration 180 nM); assay: PBM binding z-score (relative to random genomic background probes); higher = stronger binding; sequences stand for … in GC…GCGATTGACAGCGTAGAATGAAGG
# PBM binding z-score values compiled below
Answer with a bare number; do not write a unit.

A selection of reference data follows.
Sequence Content: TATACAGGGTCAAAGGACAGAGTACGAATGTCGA
PBM binding z-score: 2.18
//
Sequence Content: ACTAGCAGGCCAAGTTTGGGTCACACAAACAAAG
PBM binding z-score: 0.789
//
Sequence Content: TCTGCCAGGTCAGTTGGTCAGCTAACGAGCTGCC
PBM binding z-score: 0.213
//
Sequence Content: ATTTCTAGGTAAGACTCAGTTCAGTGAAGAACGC
PBM binding z-score: 1.66
//
Sequence Content: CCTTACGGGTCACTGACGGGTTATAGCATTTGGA
PBM binding z-score: 3.14

Next sequence, please.
For the record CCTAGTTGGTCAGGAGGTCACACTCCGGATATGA , what value of PBM binding z-score is listed for PPARg homodimer (NR concentration 180 nM)? 4.17

###

tested on: RARg homodimer (NR concentration 270 nM); assay: PBM binding z-score (relative to random genomic background probes); higher = stronger binding; sequences stand for … in GC…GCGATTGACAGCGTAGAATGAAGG
Class field: derived from PBM binding z-score; ranges range A: < 0.4; range B: ≥ 0.4 and < 6; range C: ≥ 6

Some solved entries appear below for comparison.
Sequence Content: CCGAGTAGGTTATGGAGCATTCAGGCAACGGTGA
Category Label: range B
--
Sequence Content: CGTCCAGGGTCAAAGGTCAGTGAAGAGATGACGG
Category Label: range C
--
Sequence Content: GGAACGAGGGCATTCGAGGTGATAGCATGGCGAT
Category Label: range B

Quick check: band for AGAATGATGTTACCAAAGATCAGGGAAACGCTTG range B

Hey, which category is GCAAATAGGTAATACAAGGTGAAAGTCCGATTGT in, do you know? range B

Class (by measured PBM binding z-score) for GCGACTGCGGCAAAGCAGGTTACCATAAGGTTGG range A

###

tested on: RXRa DBDmut IVT, anti-RXR (DBD mutation: RXRa K156A/R161A, NR concentration 90 nM); assay: PBM binding z-score (relative to random genomic background probes); higher = stronger binding; sequences stand for … in GC…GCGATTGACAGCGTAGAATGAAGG
Value Type: PBM binding z-score
Reply: number alone, nothing else.

Use these answered entries as a reference point.
Sequence Content: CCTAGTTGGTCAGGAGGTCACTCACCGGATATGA
PBM binding z-score: 0.697
--
Sequence Content: GCTGCTAGGTCAACTGATGCTCAGCTAAAGCTCG
PBM binding z-score: 1.64
--
Sequence Content: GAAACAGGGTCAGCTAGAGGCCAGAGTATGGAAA
PBM binding z-score: 1.52
--
Sequence Content: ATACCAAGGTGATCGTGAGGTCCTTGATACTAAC
PBM binding z-score: 0.0286
--
Sequence Content: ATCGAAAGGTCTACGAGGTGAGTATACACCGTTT
PBM binding z-score: -0.0758

// returns reported PBM binding z-score for input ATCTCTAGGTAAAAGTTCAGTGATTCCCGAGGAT 0.773

Entry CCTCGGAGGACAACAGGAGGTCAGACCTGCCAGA has what PBM binding z-score? 0.289

Consider the sequence shown here: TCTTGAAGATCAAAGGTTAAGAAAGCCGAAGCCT What is its recorded PBM binding z-score? 0.731

Name the reported PBM binding z-score value associated with the sequence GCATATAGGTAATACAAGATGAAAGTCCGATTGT 0.287

###

test system: PPARg:RXRa 270nM:90nM, anti-RXR (NR concentration 270 nM, RXRa partner concentration 90 nM); test: PBM binding z-score (relative to random genomic background probes); higher = stronger binding; sequences stand for … in GC…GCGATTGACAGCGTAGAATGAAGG
Value Type: PBM binding z-score
# print the numeric value only

Sequence Content: CCTGCTAGGTCAATGGTAAGCTAAAGCAGCTCGC
PBM binding z-score: 2.98

If you can, please state the reported PBM binding z-score value of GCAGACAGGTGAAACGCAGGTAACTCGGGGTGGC . 0.104

Name the recorded PBM binding z-score for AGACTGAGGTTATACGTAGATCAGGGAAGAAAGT . 0.937

# get_value(readout='PBM binding z-score', item= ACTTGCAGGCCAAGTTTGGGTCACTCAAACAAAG ) 0.667

Find the recorded PBM binding z-score belonging to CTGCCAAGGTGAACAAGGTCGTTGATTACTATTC and report it. 1.1

I have this sequence here, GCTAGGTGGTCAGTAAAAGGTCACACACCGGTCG , and I need its recorded PBM binding z-score. 4.14

PBM binding z-score lookup needed for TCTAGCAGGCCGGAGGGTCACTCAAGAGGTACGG , thanks. 1.34

Bench note: what PBM binding z-score did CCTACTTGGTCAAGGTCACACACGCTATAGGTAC show? 3.87

###

test system: PPARg:RXRa 270nM:90nM, anti-RXR (NR concentration 270 nM, RXRa partner concentration 90 nM); assay: PBM binding z-score (relative to random genomic background probes); higher = stronger binding; sequences stand for … in GC…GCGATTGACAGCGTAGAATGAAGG
Value Type: PBM binding z-score
Answer as a number with no unit attached.

Sequence Content: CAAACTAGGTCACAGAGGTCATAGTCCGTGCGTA
PBM binding z-score: 8

Endpoint output: PBM binding z-score of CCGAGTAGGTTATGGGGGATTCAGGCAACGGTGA . Value? 4.36

// lookup PBM binding z-score for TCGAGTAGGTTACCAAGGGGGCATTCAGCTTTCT 3.04

# input sequence: CCTCCTAGGTCATGGTCAGCTAATCTACAGTATG ; wanted: its PBM binding z-score 2.89

###

tested on: PPARg:RXRa 90nM:30nM, anti-RXR (NR concentration 90 nM, RXRa partner concentration 30 nM); assay: PBM binding z-score (relative to random genomic background probes); higher = stronger binding; sequences stand for … in GC…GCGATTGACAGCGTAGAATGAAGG
Returns Met if the recorded PBM binding z-score is greater than or equal to 0.8, and Not met otherwise.

Sequence Content: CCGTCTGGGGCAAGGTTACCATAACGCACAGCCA
Assayed Target: PPARg:RXRa 90nM:30nM, anti-RXR (NR concentration 90 nM, RXRa partner concentration 30 nM)
Category Label: Met

Sequence Content: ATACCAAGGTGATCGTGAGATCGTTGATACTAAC
Assayed Target: PPARg:RXRa 90nM:30nM, anti-RXR (NR concentration 90 nM, RXRa partner concentration 30 nM)
Category Label: Not met

Sequence Content: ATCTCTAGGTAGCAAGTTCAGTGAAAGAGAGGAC
Assayed Target: PPARg:RXRa 90nM:30nM, anti-RXR (NR concentration 90 nM, RXRa partner concentration 30 nM)
Category Label: Not met

Check this sequence for PBM binding z-score at or above 0.8: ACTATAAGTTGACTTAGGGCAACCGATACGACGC Not met

Identify whether the reported PBM binding z-score of the following sequence is 0.8 or greater: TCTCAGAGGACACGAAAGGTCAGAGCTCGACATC Met

###

tested on: FXR:RXRa (NR concentration 270 nM, RXRa partner concentration 90 nM); assay: PBM binding z-score (relative to random genomic background probes); higher = stronger binding; sequences stand for … in GC…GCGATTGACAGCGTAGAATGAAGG
// reported PBM binding z-score per item
Keep the answer to the number alone.

Example cases with answers are listed next.
Sequence Content: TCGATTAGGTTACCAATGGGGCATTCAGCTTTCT
PBM binding z-score: 0.297
//
Sequence Content: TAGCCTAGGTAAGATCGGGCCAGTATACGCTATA
PBM binding z-score: -0.504
//
Sequence Content: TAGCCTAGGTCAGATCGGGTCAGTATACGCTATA
PBM binding z-score: 2.96
//
Sequence Content: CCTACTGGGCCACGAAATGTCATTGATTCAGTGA
PBM binding z-score: -0.161
//
Sequence Content: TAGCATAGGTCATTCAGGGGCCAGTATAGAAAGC
PBM binding z-score: 6.82
//
Sequence Content: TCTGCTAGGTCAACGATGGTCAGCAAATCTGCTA
PBM binding z-score: 3.33
//
Sequence Content: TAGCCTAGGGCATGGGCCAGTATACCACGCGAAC
PBM binding z-score: -0.362

What value of PBM binding z-score on FXR:RXRa (NR concentration 270 nM, RXRa partner concentration 90 nM) does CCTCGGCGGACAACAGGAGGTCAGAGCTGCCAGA have? 0.527
